Where these numbers come from: PubChem BioAssay AID1963847

Reported IC50 values for the following molecules.
System: 415267-285-R-J2-PDC complex spheroid viability;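 also: spheroids exposed to compounds for one week before readout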
assayName: Anticancer human tumor 415267-285-R-J2-PDC patient-derived breast carcinoma cell line growth inhibition [POLQ]
conditions: curve of first compound; second compound 0.316 µM

Worked examples, 2 molecules total:
CCCS(=O)(=O)Nc1ccc(F)c(C(=O)c2c[nH]c3ncc(-c4ccc(Cl)cc4)cc23)c1F + COC1C(OC(N)=O)C(O)C(Oc2ccc3c(O)c(NC(=O)c4ccc(O)c(CC=C(C)C)c4)c(=O)oc3c2C)OC1(C)C    > 10000 nM
Nc1ccn(C2OC(CO)C(O)C2(F)F)c(=O)n1 (stereo not drawn) + Cc1cccc(N(C)C(=O)C2C(O)CCN2c2nc(C)cc(C(F)(F)F)c2C#N)c1    < 31.6 nM

Incoming: Consider the molecule shown here: COc1cccc2c1C(=O)c1c(O)c3c(c(O)c1C2=O)CC(O)(C(=O)CO)CC3OC1CC(N)C(O)C(C)O1 (stereo not drawn) + Cc1cccc(N(C)C(=O)C2C(O)CCN2c2nc(C)cc(C(F)(F)F)c2C#N)c1 What is its recorded IC50?
Outgoing: < 31.6 nM
